Task for the reader: assign each of the following compounds its reported Kd.
Molecular target: CD33xMIC5
Assay: SPR affinity of VHH clone (antibody fusion) to PROTACs
Conditions: CD33xMIC5 immobilized, 25° C., read-out: KD [M] for antibody binding to PROTAC
Give bare numbers, in M.

Example cases with answers are listed next.
Cc1ncsc1-c1ccc([C@H](C)NC(=O)[C@@H]2C[C@@H](O)CN2C(=O)[C@@H](NC(=O)COCCCOCCNC(=O)C[C@@H]2N=C(c3ccc(Cl)cc3)c3c(sc(C)c3C)-n3c(C)nnc32)C(C)(C)C)cc1 ... 2.7e-07
Cc1ncsc1-c1ccc(CNC(=O)[C@@H]2C[C@@H](O)CN2C(=O)[C@@H](NC(=O)C2(F)CC2)C(C)(C)C)c(OCCOc2ccc(CN3CCN(c4cc(-c5ccccc5O)nnc4N)CC3)cc2)c1 ... 2.5e-06
Cc1ncsc1-c1ccc(CNC(=O)[C@@H]2C[C@@H](O)CN2C(=O)[C@@H](NC(=O)CCCCCCCCCCNC(=O)c2cc3c(cc2CS(C)(=O)=O)-c2cn(C)c(=O)c4[nH]cc(c24)CN3c2ncc(F)cc2F)C(C)(C)C)cc1 ... 9.6e-10

## Task Quick one: Kd of CC(=O)N[C@H](C(=O)N1C[C@H](O)C[C@H]1C(=O)NCc1ccc(-c2scnc2C)cc1)C(C)(C)SCCCCCCNC(=O)C[C@@H]1N=C(c2ccc(Cl)cc2)c2c(sc(C)c2C)-n2c(C)nnc21 ?
## Result 2.4e-09
